# method: Phase 1 Stage 1 clinical pharmacokinetics of SC ZA co-administered with rHuPH20
# Format: in vivo, human
# reported_conditions: human, serum, sc, 0.0781 mg/kg, AUC (0-12 h), Subj 71; ZA 0.0781 mg/kg SC; inf […]; PH20 6000 U

[
  {
    "compound": "O=P(O)(O)C(O)(Cn1ccnc1)P(=O)(O)O [ZA]",
    "unit_of_measure": "µg·h/mL",
    "AUC(0-t)": 0.592
  }
]

###

# method: Phase 1 Stage 1 clinical pharmacokinetics of SC ZA co-administered with rHuPH20
# Assay type: in vivo, human
# reported_conditions: human, serum, sc, ZA 1 mg SC + 24000 U rHuPH20; median, n=3; read-out: Vz/F

[
  {
    "smiles_text": "O=P(O)(O)C(O)(Cn1ccnc1)P(=O)(O)O",
    "unit_of_measure": "L/kg",
    "Vd/F": 2.05
  }
]
